- Assay target: T1, human Notch1 NRR_Avi_His recombinant protein (human, UniProt P46531 1434-1737)
- T1 construct: Secreted from CHO-PACE cells; cleaved at S1 into an N-terminal ~26 kDa half (LNR-A, B, C, HD1) and a C-terminal ~12 kDa half (HD2 and tag) that stay associated non-covalently; written here as one chain; also called recombinant human Notch1 NRR; human Notch1 NRR immunogen
- T1 sequence: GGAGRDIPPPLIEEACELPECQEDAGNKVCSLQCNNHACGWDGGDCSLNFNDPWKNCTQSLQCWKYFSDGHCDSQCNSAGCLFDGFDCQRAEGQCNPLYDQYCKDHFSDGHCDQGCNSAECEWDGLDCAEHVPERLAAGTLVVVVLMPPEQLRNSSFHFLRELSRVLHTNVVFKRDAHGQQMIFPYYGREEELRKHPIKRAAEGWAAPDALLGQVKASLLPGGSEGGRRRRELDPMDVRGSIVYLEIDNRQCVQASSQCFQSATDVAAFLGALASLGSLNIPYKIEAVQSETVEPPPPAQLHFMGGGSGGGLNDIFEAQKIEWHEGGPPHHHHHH
- Protocol: SPR (Biacore T100), ratio of KD to that of rat 438-hIgG1
# Fold difference from rat 438 per record follows

>  <Binder>
humanized 438 VH1.1/VL1.1 (antibody, human IgG1, V domains shown) VH: EVQLVESGGGLVQPGGSLRLSCAASGFTFSSFAMAWVRQAPGKGLEWVASISYGGADTYYRDSVKGRFTISRDNAKNSLYLQMNSLRAEDTAVYYCAKDLPYYGYTPFVMDAWGQGTLVTVSS VL: DIQLTQSPSSLSASVGDRVTITCRASQRINTDLHWYQQKPGKAPKVLIKFASQTISGVPSRFSGSGSGTDFTLTISSLQPEDFATYYCQQSNSWPYTFGQGTKLEIK

>  <Unit string>
fold

>  <Fold difference from rat 438>
2.21

$$$$
>  <Binder>
humanized 438 VH1.1/VL1.8 (antibody, human IgG1, kappa, V domains shown, full chains (VH1.1)-hIgG1-3M and (VL1.8)-hkappa) VH: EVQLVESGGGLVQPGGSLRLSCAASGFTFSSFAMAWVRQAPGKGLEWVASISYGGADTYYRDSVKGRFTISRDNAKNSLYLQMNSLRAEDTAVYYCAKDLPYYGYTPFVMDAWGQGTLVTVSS VL: DIQMTQSPSSLSASVGDRVTITCRASQRINTDLHWYQQKPGKAPKVLIKFASQTISGVPSRFSGSGSGTDFTLTISSLQPEDFATYYCQQSNSWPYTFGQGTKLEIKR

>  <Unit string>
fold

>  <Fold difference from rat 438>
0.48

$$$$
>  <Binder>
humanized 438 VH1.0/VL1.1 (antibody, human IgG1, V domains shown) VH: EVQLVESGGGLVQPGGSLRLSCAASGFTFSSFAMAWVRQAPGKGLEWVASISYGGADTYYRDSVKGRFTISRDNAKNSLYLQMNSLRAEDTAVYYCARDLPYYGYTPFVMDAWGQGTLVTVSS VL: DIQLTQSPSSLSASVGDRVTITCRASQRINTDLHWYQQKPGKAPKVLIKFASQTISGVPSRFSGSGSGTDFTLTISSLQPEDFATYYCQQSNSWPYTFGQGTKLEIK

>  <Unit string>
fold

>  <Fold difference from rat 438>
1.47

$$$$
